Target: T1, cynomolgus monkey B7-H4 (recombinant, BLI) (cynomolgus monkey, UniProt Q7Z7D3 25-259 (human entry))
T1 construct: also called Cynomolgus B7-H4
T1 sequence: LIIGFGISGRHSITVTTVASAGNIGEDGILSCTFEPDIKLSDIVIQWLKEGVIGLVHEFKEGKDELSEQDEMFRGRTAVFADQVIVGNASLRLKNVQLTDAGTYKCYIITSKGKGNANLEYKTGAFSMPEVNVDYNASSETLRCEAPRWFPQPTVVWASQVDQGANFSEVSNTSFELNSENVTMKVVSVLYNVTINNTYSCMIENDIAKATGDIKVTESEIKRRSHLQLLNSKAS
Experiment: BLI, antigen on Protein A tips;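 further: Anti-B7-H4 antibodies assessed for affinity toward the B7-H4 extracellular domain using biolayer interferometry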
Item-by-item account of koff
Answer in s⁻¹, number only, no unit symbol.

Could you tell me which koff is on file for B7-H4 antibody 20501 (antibody, human IgG1, kappa, V domains shown, human IgG1/kappa) VH: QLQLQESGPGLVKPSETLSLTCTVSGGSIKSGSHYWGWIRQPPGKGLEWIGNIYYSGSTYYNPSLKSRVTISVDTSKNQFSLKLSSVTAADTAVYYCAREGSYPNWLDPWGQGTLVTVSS VL: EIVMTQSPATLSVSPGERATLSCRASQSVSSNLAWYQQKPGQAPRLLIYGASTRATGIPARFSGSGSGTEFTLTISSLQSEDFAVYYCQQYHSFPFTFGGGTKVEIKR ?
0.00246

Subsequent entry: B7-H4 antibody 20516 (antibody, human IgG1, kappa, V domains shown, human IgG1/kappa) VH: QVQLQESGPGLVKPSETLSLTCTVSGGSIISYYWGWIRQPPGKGLEWIGYIYSSGSTSYNPSLKSRVTISVDTSKNQFSLKLSSVTAADTAVYYCARGSGLYAAPDYGLDVWGQGTTVTVSS VL: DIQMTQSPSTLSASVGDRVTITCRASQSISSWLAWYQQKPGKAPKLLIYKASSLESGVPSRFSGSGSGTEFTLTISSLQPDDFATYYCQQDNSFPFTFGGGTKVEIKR
0.00783

Subsequent entry: B7-H4 antibody 22208 (antibody, human IgG1, kappa, V domains shown, human IgG1/kappa) VH: QLQLQESGPGLVKPSETLSLTCTVSGGSIKSGSHYWGWIRQPPGKGLEWIGNIYYSGSTYYNPSLKSRVTMSVDTSKNQFSLKLSSVTAADTAVYYCAREGSYPNWFDPWGQGTLVTVSS VL: EIVMTQSPATLSVSPGERATLSCRASQSVSTNLAWYQQKPGQAPRLLIYDASARVTGIPARFSGSGSGTEFTLTISSLQSEDFAVYYCQQYHSFPFTFGGGTKVEIKR
0.00108

Next binder, koff to be filled in.
Could you tell me which koff is on file for B7-H4 antibody 20500 (antibody, human IgG1, kappa, V domains shown, human IgG1/kappa) VH: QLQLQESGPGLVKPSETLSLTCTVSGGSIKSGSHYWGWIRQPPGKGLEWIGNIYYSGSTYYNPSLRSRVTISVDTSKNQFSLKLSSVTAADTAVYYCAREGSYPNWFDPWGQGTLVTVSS VL: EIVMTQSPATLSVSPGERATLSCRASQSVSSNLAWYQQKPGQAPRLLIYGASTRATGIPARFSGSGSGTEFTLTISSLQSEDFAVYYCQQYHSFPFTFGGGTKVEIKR ?
0.00229
